Test system: HCI09 (cells of a triple-negative luminal androgen receptor type breast cancer xenograft)
Assay: cell viability (% of vehicle); higher = less cytotoxic;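 note: PDX cells carrying CMV promoter-driven luciferase, viability read as total photon flux per second by IVIS imaging following D-luciferin, vehicle control 0.1% DMSO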
Conditions: 10 µM; 72 h
property.measured: cell viability
No unit in the answer, please; the number alone is enough.

Use the examples below as a reference point.
1) N[C@@H](Cc1cc(I)c(Oc2cc(I)c(O)c(I)c2)c(I)c1)C(=O)O [L-Thyroxine] | 114
2) CC12C=CC(=O)C=C1CCC1C3CC(O)C(O)(C(=O)CO)C3(C)CC(O)C12F (stereo not drawn) [Triamcinolone] | 112

// assay HCI09, entry O=C1NC(=O)[C@@H](c2c[nH]c3ccccc23)[C@H]1c1cn2c3c(cccc13)CCC2 [Tivantinib (ARQ 197)] , cell viability value = 51.5

// assay HCI09, entry CC(=O)O.C[C@H](N)C(=O)O.NCCCC[C@H](N)C(=O)O.N[C@@H](CCC(=O)O)C(=O)O.N[C@@H](Cc1ccc(O)cc1)C(=O)O [glatiramer acetate] , cell viability value = 108

// assay HCI09, entry Cc1noc(NS(=O)(=O)c2ccc(N)cc2)c1C [Sulfisoxazole] , cell viability value = 94.4

// assay HCI09, entry O=c1[nH]cc(F)c(=O)[nH]1 [Fluorouracil (Adrucil)] , cell viability value = 75.1

// assay HCI09, entry COCCc1ccc(OCC(O)CNC(C)C)cc1.COCCc1ccc(OCC(O)CNC(C)C)cc1.O=C(O)C(O)C(O)C(=O)O (stereo not drawn) [Metoprolol Tartrate] , cell viability value = 112

// assay HCI09, entry CCC(=O)OC1(C(=O)SCF)C(C)CC2C3CC(F)C4=CC(=O)C=CC4(C)C3(F)C(O)CC21C (stereo not drawn) [Fluticasone propionate] , cell viability value = 128

// assay HCI09, entry CCCC(=O)OC1(C(=O)COC(C)=O)CCC2C3CC(F)C4=CC(=O)C=CC4(C)C3(F)C(O)CC21C (stereo not drawn) [Difluprednate] , cell viability value = 134

// assay HCI09, entry C=C1CCC(O)CC1=CC=C1CCCC2(C)C1CCC2C(C)C=CC(C)C(C)C (stereo not drawn) [Vitamin D2 (Ergocalciferol)] , cell viability value = 61.9

// assay HCI09, entry CC1OC(OC2C(CO)OC(OC3C(CO)OC(O)C(O)C3O)C(O)C2O)C(O)C(O)C1NC1C=C(CO)C(O)C(O)C1O (stereo not drawn) [Acarbose] , cell viability value = 99

// assay HCI09, entry CN(C)CC=CC(=O)Nc1cc2c(Nc3ccc(F)c(Cl)c3)ncnc2cc1OC1CCOC1.O=C(O)C=CC(=O)O.O=C(O)C=CC(=O)O (stereo not drawn) [Afatinib dimaleate] , cell viability value = 35.2

// assay HCI09, entry CC1C(=O)OC2CC34C5CC(C(C)(C)C)C36C(OC(=O)C6O)OC4(C(=O)O5)C21O (stereo not drawn) [Ginkgolide A] , cell viability value = 97.3

###

System: HCI01 (cells of a triple-negative basal-like breast cancer xenograft)
Experiment: cell viability (% of vehicle); higher = less cytotoxic
Settings: 10 µM; 72 h
Exam item: assign class 1 to entries whose cell viability is below 100 and class 0 to entries at or above 100. Note that a value of exactly 100 receives class 0.

Consider the worked cases shown below.
1) CC1CC2C3CCC4=CC(=O)C=CC4(C)C3(F)C(O)CC2(C)C1(O)C(=O)CO (centres undefined) [Betamethasone] | class 0
2) Nc1nc(N)c2nc(-c3ccccc3)c(N)nc2n1 [Triamterene] | class 0
3) Cl.Nc1ncnc2nc[nH]c12 [Adenine HCl] | class 0
4) C=CC(=O)N1CCCC(n2nc(-c3ccc(Oc4ccccc4)cc3)c3c(N)ncnc32)C1 (centres undefined) | class 1
5) CCCC1CC(C(=O)NC(C(C)Cl)C2OC(SC)C(OP(=O)(O)O)C(O)C2O)N(C)C1 (centres undefined) [Clindamycin Phosphate] | class 0

Attention now turns to another entry.
Decide: cell viability of Cc1nc(C(=O)NCC(=O)O)c(O)c2ccc(Oc3ccccc3)cc12 strictly below 100?
class 0

Numbers sourced from the supplement of paper PMC6992640.
